assay: E. coli growth modulation, two-sided OD650, primary screen, E. coli filamentation project, strain DRC41, 24 h (AID 1093);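 further: MC1000 strain lacking acrAB efflux and sulA so SOS filamentation is blocked; test concentration not given here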
protocol.conditions: OD650, 24 h, higher = more signal, called active from +8 up or from −8 down
The source made the active and inactive calls.
Below: a set of entries, each annotated with reported z-score.

Recorded results for 2 compounds are shown here.
{"columns": ["compound", "measured.attribute", "result.value"],
 "data": [
  ["Cc1ccccc1C(O)C1C=CC2C(=O)N(C)C(=O)C2N1N(c1ccccc1)c1ccccc1 (stereo not drawn)", "z-score", "-0.717 (inactive)"],
  ["C=C(CCCC)/C(=C/C[C@@H](OC(=O)c1ccncc1)c1ccccc1OCCO)c1cnc2ccccc2c1", "z-score", "0.514 (inactive)"]
]}

QUERY: What value of z-score has been reported for the following compound? `[N-]=[N+]=NCc1ccccc1C[C@@]1(C(=O)N2CCOCC2)N=C(c2ccc(OCCCO)cc2)O[C@@H]1c1ccccc1`
RESULT: 0.386 (inactive)

QUERY: What value of z-score has been reported for the following compound? O=C1NC(=O)C2C1C=CC(C(O)c1ccco1)N2Nc1ccccn1 (stereo not drawn)
RESULT: -0.87 (inactive)

QUERY: What value of z-score has been reported for the following compound? `COC(=O)c1c(CC[C@@H](CO)NC(=O)N2CCC[C@H]2Cn2cc(Cc3ccccc3)nn2)oc(C(C)=O)c1C(=O)OC`
RESULT: -0.0178 (inactive)

QUERY: What value of z-score has been reported for the following compound? `COC(=O)c1c(CC[C@@H](CO)NC(=O)N[C@H](Cn2cc(C3(O)CCCCC3)nn2)C(C)C)oc(C(C)=O)c1C(=O)OC`
RESULT: 1.66 (inactive)

QUERY: What value of z-score has been reported for the following compound? `Cc1ccc(S[C@]2(C(=O)NCCCN(C)C)CC(=O)N(C3CCCCC3)[C@@H]2c2ccc(CO)cc2)cc1`
RESULT: 0.457 (inactive)

QUERY: What value of z-score has been reported for the following compound? `CCOC(=O)C[C@H]1[C@H](OC(=O)c2ccc(C(=O)c3ccccc3)cc2)[C@@H](NC(=O)Cc2ccc(OC)cc2)c2cc(OCCCO)ccc2N1C(=O)c1ccccc1`
RESULT: -0.978 (inactive)

====

assay: small-molecule microarray binders of probe aXIP, primary screen, biochemical, NeuroSMM set, 635/667 nm fluorescence (AID 1119);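 further: probe is the protein aXip251-270 applied at 1 µg/mL to compound-printed slides; binding of probe to printed compounds measured as 667 nm fluorescence plus signal to noise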
protocol.conditions: higher = more signal, called active from +8 up or from −8 down
Below: a set of entries, each annotated with reported composite Z-score.
Please state the value as a number alone, without comment.

{"columns": ["molecule", "measured.attribute", "result.value"],
 "data": [
  ["CC(CO)N1C(=O)[C@@H]2[C@H]3C(=O)OCC=C[C@H]3OC23C=CCN(CCN2CCOCC2)C(=O)[C@@H]13 (some centres not stated)", "composite Z-score", -0.0888],
  ["C=C(C(=O)CC[C@@H](OC(C)=O)c1ccc(CO)o1)C(C)C", "composite Z-score", 1.58],
  ["COC(=O)[C@@]1(Cc2ccccc2N=[N+]=[N-])N=C(c2ccc(OCCCO)cc2)O[C@H]1c1ccccc1N=[N+]=[N-]", "composite Z-score", 0.332],
  ["CCOC(=O)C[C@H]1[C@H](OC(=O)c2cc3ccccc3oc2=O)[C@@H](NC(=O)c2ccc(-c3ccccc3)cc2)c2cc(OCCCO)ccc2N1C(=O)c1ccc2ccccc2n1", "composite Z-score", 0.6],
  ["CCCCCCc1nc(-c2cc(C)c(OC)c(C)c2)c(C)c2c1[Si](C(C)C)(C(C)C)OC2", "composite Z-score", 0.792],
  ["COC(=O)[C@@]1(Cc2ccc(F)cc2)[C@H]2c3cc(C(=O)N(C)C)n(CCc4ccc(O)c(OC)c4)c3C[C@H]2CN1C(=O)c1ccccc1", "composite Z-score", -0.399]
]}

QUERY: What value of composite Z-score has been reported for the following molecule? `C=CCNC(=O)[C@H]1[C@@H]2C(=O)O[C@@H](c3ccccc3)[C@@H](c3ccccc3)N2[C@@H](c2ccc(O)cc2)[C@]12C(=O)Nc1ccc(C#CC3(O)CCCCCC3)cc12`
RESULT: -0.005
